- Tested on: MS2 coat protein
- PROCEDURE_TEXT: apparent KD of MS2 coat protein; designed switch direction (-1 OFF switch, 1 ON switch): 1; higher = weaker reporter binding
- APPLIED_CONDITIONS: input ligand: microRNA oligo, concentration not stated
Could you label it 1 if measured apparent KD of MS2 coat protein is 40 nM or higher, and -1 otherwise?

>  <SEQUENCE_INPUT>
AAACAUGAGGAUCACCCAUGUCGAUUAAAACCCUAAUCUACUCAGGAUAUCCGAAUGCGCGUUUCGGAGAAGGGAGAAAUGUGA [Isessoreri] (Eterna round: R96, puzzle: Same State NG 3)

>  <CAT>
-1

$$$$
>  <SEQUENCE_INPUT>
AAUCGUUUGAUAGGAUAUCGCUAUACAUGAGGAUCACCCAUGUUUACCACACUGGUUUUUCGUACCGAGAAGGAUUCUGAUGAU [JL JR sub007 mod 9] (Eterna round: R96, puzzle: Same State NG 2)

>  <CAT>
-1

$$$$
>  <SEQUENCE_INPUT>
GUGGUCAGACAUGAGGAUCACCCAUGUGGAAUAAAUAAGGCAUAGGAUAUGAAAUAUAGGAUAUAUCAGAAGGAUGGGUUGGUG (Eterna round: R96, puzzle: Same State NG 3)

>  <CAT>
1

$$$$
>  <SEQUENCE_INPUT>
UUGAUGAAUUAAGGAUAUCGAGUCGUCUAAUUAAACAUGAGGAUCACCCAUGUGGGUUGUGGUAUCGAGAAGGUAAAUUACUUA [JR_SSNG2_Sub098] (Eterna round: R96, puzzle: Same State NG 2)

>  <CAT>
1

$$$$
>  <SEQUENCE_INPUT>
GAGUGUGAAUAAGGAUAUAUGAGAGAGUGAGUAAUAGAAGGUAUACAAACAUGAGACAUGAGGAUCACCCAUGUAUCACCCAUG [Something that seems to work] (Eterna round: R96, puzzle: Same State NG 1)

>  <CAT>
-1

$$$$

====

- Tested on: MS2 coat protein
- PROCEDURE_TEXT: apparent KD of MS2 coat protein; designed switch direction (-1 OFF switch, 1 ON switch): -1; higher = weaker reporter binding
- APPLIED_CONDITIONS: input ligand: none
We'd kindly ask you to apply these apparent KD of MS2 coat protein classes: lowest: < 0.02 µM; middle: ≥ 0.02 µM and < 0.05 µM; highest: ≥ 0.05 µM

>  <SEQUENCE_INPUT>
UCGUCGUCGUCAGGAUAUAGUCUUAUUGUUAUGCUUUUGUUCGUACAUGAGGAUCACCCAUGUGGCUAGAAGGGACUAAAGUUU [JR_ExcNG2_Sub017] (Eterna round: R96, puzzle: Exclusion NG 2)

>  <CAT>
middle

$$$$
>  <SEQUENCE_INPUT>
AAAAUGUGAGGAUAUCCAAUAUAUGACAUGAGGAUCACCCAUGUUUCCACUCGUACCUCCGGAGAAGGCACUAAAA [Ex5 #42] (Eterna round: R97, puzzle: Exclusion 5)

>  <CAT>
middle

$$$$
>  <SEQUENCE_INPUT>
AACCUGAGGCUUUGCUUUAGGUUUACAUGAGGAUCACCCAUGUAGGAUAUGGUAGGCAUAGCUUACCAGAAGGACAUGAAAAUU [Mat - Exclusion NG 3 - Mod of JL - D29] (Eterna round: R96, puzzle: Exclusion NG 3)

>  <CAT>
middle

$$$$
>  <SEQUENCE_INPUT>
UAGGAUACCGUCAGGAUAUAGAGUUCCCACAGACUCUAGAAGGGACAUGAGGAUCACCCAUGUCGUGCAACGUU [Eternabot (L1) Solution 54] (Eterna round: R97, puzzle: Brourd's mod of Exclusion 4)

>  <CAT>
lowest

$$$$
>  <SEQUENCE_INPUT>
GUAUGUGGUAAGGAUAUGCAUAAAACCCGCUCCGCAGAAGGUACCACAUGAGGAUCACCCAUGUGAUACCAAUA [EX6 A.16] (Eterna round: R97, puzzle: Exclusion 6)

>  <CAT>
lowest

$$$$
>  <SEQUENCE_INPUT>
UUAAAUCAUGUAGGAUAUGCGUUGCGAAGCGAUGCAGAAGGACAUGAGGAUCACCCAUGUGCUAGCGUCCGCGUACGGAUGCAA [Mat - Exclusion NG 1 - Mod of JL - D60] (Eterna round: R96, puzzle: Exclusion NG 1)

>  <CAT>
highest

$$$$
>  <SEQUENCE_INPUT>
UUUAAUGGAAUUAAGAUCACAUGAGGAUCACCCAUGUAUAUAUAGGAUAUCAGCUCGUUUAGAGCUGAGAAGGAUAUAUACAUA [ExNG3/6-B2] (Eterna round: R96, puzzle: Exclusion NG 3)

>  <CAT>
highest

$$$$
>  <SEQUENCE_INPUT>
GCUGGUCAAGGAUAUACAUGAGGAUCACCCAUGUAGAUCAACCAGCGAUAGCUGGAAUGUAGAAGGUGACCAGC [E3/5-C1] (Eterna round: R97, puzzle: Exclusion 3)

>  <CAT>
lowest

$$$$

====

As shown below, each of these sequences has a reported apparent KD of K4 kissing-loop reporter value.
- Tested on: K4 kissing-loop RNA reporter;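 note: bound reporter read as fluorescence of individual clusters on recovered sequencing chips by microscopy, with normalized cluster intensities fitted with a binding model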
- PROCEDURE_TEXT: apparent KD of K4 kissing-loop reporter; higher = weaker reporter binding
- APPLIED_CONDITIONS: Eterna round: R107; input ligand: arginine 13.2 mM

>  <SEQUENCE_INPUT>
AAGGGCGGAACUUCCUCGCCGGAUAGAGAUACCAGCCCAGCAAAGGGCCCUUGGCAGCUCACUGACCUCAGUGAUGUUGAGGUUC [Riesrevere]

>  <apparent KD of K4 kissing-loop reporter>
241 nM

$$$$
>  <SEQUENCE_INPUT>
GCCGUAGAUUGAAGGAGCGUUCUUACUGAUUACGGCAGCCGGAAGUGAUGUUUCCAGGUGGAACAGGUAGGUCGCAAUCUACGGC

>  <apparent KD of K4 kissing-loop reporter>
87.2 nM

$$$$
>  <SEQUENCE_INPUT>
AAUAAGCAUGGAAGGAGCGUAGUCCAGUGAUGUUGGAGUUAAAUACCAGUGAUGUUGGUUAUACAGGUAGGUCGCCAUAAAGCUU [Exclusion Arginine B Gf 6]

>  <apparent KD of K4 kissing-loop reporter>
64.8 nM

$$$$
>  <SEQUENCE_INPUT>
AAUAAGUGUCAGCGAGUGAUGUUCGACGAUACCAGACUCGAUAGAGUCCCUUGGCAGCGUAACGCAUGCCAAACUGGCACAAUAA [#SwitchBubble 8 #K4Early]

>  <apparent KD of K4 kissing-loop reporter>
444 nM

$$$$
>  <SEQUENCE_INPUT>
CAUACGCAUGGAGGAUAUGAGAUUUCUCAUAUUAUUUAUUAUUCUCAGUGAUGUUGGGAUUUAAACUCAGAAGGCCAUGUGUAUG [Ex FMN B 8]

>  <apparent KD of K4 kissing-loop reporter>
176 nM

$$$$
>  <SEQUENCE_INPUT>
GUGCGCGCGGCGGCCGCCACUCGCAUGAGAGUGAUGUUCUCACCGUGACCGCAAGGUCGCGGUGUGAGGACCGGGCCGGGCUGCG [#2 Same State - Tryptophan B Attempt #25 (HarryS)]

>  <apparent KD of K4 kissing-loop reporter>
93.5 nM

$$$$

====

- System: MS2 coat protein
- PROCEDURE_TEXT: apparent KD of MS2 coat protein; higher = weaker reporter binding
- APPLIED_CONDITIONS: Eterna round: R107; input ligand: theophylline 20 uM
Think of 80 nM as a floor: if apparent KD of MS2 coat protein stands on it or above, it is satisfied; beneath it, not satisfied.

>  <SEQUENCE_INPUT>
GCUGUGAAGUCGGCCGCCACUGGUUAGUUUAACCUCAUGUAACAUGAGGAUCACCCAUGUAAUGUCAGGACCGGGACAACAGCAA [JR_ExcTryptoB_Sub016]

>  <CAT>
satisfied

$$$$
>  <SEQUENCE_INPUT>
ACAUGAGGAUCACCCAUGUUUGAUGUUCCUCGAGGACCGGUACGGCCGCCACUCGAACGAGUGGCGCGCGCGCGCGCGCGCGCGC [aQa]

>  <CAT>
not satisfied

$$$$
>  <SEQUENCE_INPUT>
CUCCGAGGCUAUACUAUCCGCCUCAGUGAUACCAGAAUACCUAUAUUCCCUUGGCAGCAUCACAUGAGGAUCACCCAUGUGCCAU [SSTheo A #14]

>  <CAT>
not satisfied

$$$$
>  <SEQUENCE_INPUT>
CUAGACUGUGCGGCCGCCACUGGCUCAUCCUGCAUUACAUGAGGAUCACCCAUGUUGCGGCCUCCCAGGACCGGGCAUAGUCUGC [Riinzaa]

>  <CAT>
satisfied

$$$$
>  <SEQUENCE_INPUT>
ACGCUGAUUGAUUACAAUCAGCGAAAAGAUACCAGUGGGUAAUCCCACCCUUGGCAGCUUAAACAUGAGGAUCACCCAUGUGGUA [TheoAS 14 #MS2Right #BothOrNeither #AlternativeMS2]

>  <CAT>
satisfied

$$$$
